Measured Yield (%) β-glucosidase from almonds, listed per entry.
# Test system: β-glucosidase from almonds
# ASSAY SUMMARY: Indigogenic reaction with β-glucosidase from almonds
# Assay type: biochemical
# CONDITIONS: indoxyl 1 mM, enzyme 1 unit/mL, 0.01M acetate buffer pH 5, 5% DMF, 37° C., 16-19 h; ϵ = 1.27 × 10^4 M^−1 cm^−1 measured for 4
// units = %; emit number, no label

Data request: Could you share which Yield (%) β-glucosidase from almonds value was measured for `COC(=O)COc1ccc2[nH]cc(O[C@@H]3O[C@H](CO)[C@@H](O)[C@H](O)[C@H]3O)c2c1Br` ?
Data returned: 68

Next up:
Data request: Could you share which Yield (%) β-glucosidase from almonds value was measured for `C#CCOc1ccc2[nH]cc(O[C@@H]3O[C@H](CO)[C@@H](O)[C@H](O)[C@H]3O)c2c1Br` ?
Data returned: 56

====

# ASSAY SUMMARY: Solubility in aqueous buffer
# Type: physicochemical
# CONDITIONS: 100 mM phosphate buffer (pH 7.4, containing 100 mM NaCl), room temperature
VALUE TYPE: solubility

Data request: Could you share which solubility value was measured for `O=C(NCCOCCOCCNc1nc(OCCOCCOCCOc2c(Br)cc3[nH]cc(O[C@@H]4O[C@H](CO)[C@@H](O)[C@H](O)[C@H]4O)c3c2Br)nc(N2CC[N+](CCCO)(CCCS(=O)(=O)[O-])CC2)n1)OC[C@@H]1[C@@H]2CCC#CCC[C@@H]21` ?
Data returned: > 400 µM

====

Measured Yield (%) β-glucosidase from almonds, listed per entry.
# Test system: β-glucosidase from almonds
# ASSAY SUMMARY: Indigogenic reaction with β-glucosidase from almonds
# Assay type: biochemical
# CONDITIONS: indoxyl 1 mM, enzyme 1 unit/mL, 0.01M acetate buffer pH 5, 5% DMF, 37° C., 16-19 h; ϵ = 1.27 × 10^4 M^−1 cm^−1 measured for 4

Data request: Could you share which Yield (%) β-glucosidase from almonds value was measured for COc1nc(Oc2ccc3[nH]cc(O[C@@H]4O[C@H](CO)[C@@H](O)[C@H](O)[C@H]4O)c3c2)nc(N2CCOCC2)n1 [Compound 19] ?
Data returned: <1%

Data request: Could you share which Yield (%) β-glucosidase from almonds value was measured for C#CCOc1ccc2[nH]cc(O[C@@H]3O[C@H](CO)[C@@H](O)[C@H](O)[C@H]3O)c2c1 [Compound 25] ?
Data returned: <5%

Next up:
Data request: Could you share which Yield (%) β-glucosidase from almonds value was measured for COC(=O)COc1ccc2[nH]cc(O[C@@H]3O[C@H](CO)[C@@H](O)[C@H](O)[C@H]3O)c2c1 [Compound 22] ?
Data returned: <1%
